Entry source: patent US6737410B1

- Tested on: H61 cells: N1H transformed 3T3 H-ras cells
- Test summary: Clonogenic assay (soft agar, 6 well plates)
- Type: cell-based
- Assay setup: Mus musculus, NIH3T3, 312 h; H-ras transformed NIH 3T3 cells, colonies counted after Day 13; read-out: Soft Agar IC50 (μM), inhibition of colony formation
Measured metric: IC50

Sample CN(C(=O)[C@H](Cc1c[nH]cn1)NC(=O)OCc1ccccc1)[C@@H](Cc1ccc(OCc2ccccc2)cc1)C(=O)NCC(C)(C)c1ccccc1 — what was its IC50?
0.1 µM

---

- System under test: SF9 affinity purified rat farnesyl protein transferase (Rattus norvegicus, UniProt Q02293+Q04631)
- Construct: made in house; host or cells: Sf9 insect cells
- Test summary: PFT (farnesyl protein transferase) inhibitory activity assay
- Format: biochemical
- Assay setup: HEPES buffer pH 7.4 containing 5 mM potassium phosphate; read-out: IC50 (μM) 5 mM PO4•^2 Hepes
Lab note: cut-off is 0.008 µM. Strictly less in IC50 is Condition met. Exactly 0.008 µM or more is Condition not met.

Hi there! Is IC50 for CN(C(=O)[C@H](Cc1c[nH]cn1)NC(=O)OCc1ccccc1)[C@@H](Cc1ccc(OCc2ccccc2)cc1)C(=O)NCCc1ccccc1 (relative stereo) below 0.008 µM, do you know?
Condition not met

Hi there! Is IC50 for CC(C)C[C@@H](C(=O)NCC(C)(C)c1ccccc1)N(C)C(=O)[C@H](Cc1cnc[nH]1)NC(=O)OCc1ccccc1 below 0.008 µM, do you know?
Condition not met

Hi there! Is IC50 for CN(C(=O)[C@H](Cc1cnc[nH]1)NC(=O)OCc1ccccc1)[C@@H](Cc1ccc(OCc2ccccc2)cc1)C(=O)NCC1(c2ccccc2)CCC1 (relative stereo) below 0.008 µM, do you know?
Condition not met

Hi there! Is IC50 for CN(C(=O)[C@@H](Cc1c[nH]cn1)NC(=O)OCc1ccccc1)[C@@H](Cc1ccc(OCc2ccccc2)cc1)C(=O)NCCOCc1ccccc1 (relative stereo) below 0.008 µM, do you know?
Condition not met

Hi there! Is IC50 for CN(C(=O)[C@H](Cc1c[nH]cn1)NC(=O)OCc1ccccc1)[C@@H](Cc1ccc(OCc2ccccn2)cc1)C(=O)NCC(C)(C)c1ccccc1 below 0.008 µM, do you know?
Condition met

Hi there! Is IC50 for CN(C(=O)[C@H](Cc1c[nH]cn1)NC(=O)OCc1ccccc1)[C@@H](Cc1ccc(OCc2ccccc2)cc1)C(=O)NCC(C)(C)c1ccccc1 below 0.008 µM, do you know?
Condition met

Hi there! Is IC50 for CN(C(=O)[C@H](Cc1cnc[nH]1)NC(=O)OCc1ccccc1)[C@@H](Cc1ccccc1)C(=O)NCC(C)(C)c1ccccc1 below 0.008 µM, do you know?
Condition met

---

- Test system: ras protein farnesylation in ras-transformed cells (H-ras-transformed HIH 3T3 cells)
- Test summary: Gel shift assay (inhibition of ras farnesylation in cells)
- Assay type: cell-based
- Assay setup: ras-transformed cells, 18-hour incubation
Measured metric: Gel Shift (μM) M.E.D* (minimal effective dose to observe inhibition of ras farnesylation)

Smiles string | Meas value
CC(C)C[C@@H](C(=O)NCC(C)(C)c1ccccc1)N(C)C(=O)[C@H](Cc1cnc[nH]1)NC(=O)OCc1ccccc1 | ≦0.05 μM
CN(C(=O)[C@H](Cc1c[nH]cn1)NC(=O)OCc1ccccc1)[C@@H](Cc1ccc(OCc2ccccn2)cc1)C(=O)NCC(C)(C)c1ccccc1 | ≦0.05 μM
CN(C(=O)[C@H](Cc1cnc[nH]1)NC(=O)OCc1ccccc1)[C@@H](Cc1ccccc1)C(=O)NCC(C)(C)c1ccccc1 | ≦0.05 μM
